Provenance of the data: patent US20090246292A1

Tested on: S. aureus ATCC 29213
Test: Minimum bactericidal concentration (MBC) assay
Assay type: cell-based, Staphylococcus aureus
measure.name: MBC

Identify measured MBC corresponding to O.O=C([O-])C(O)C(O)C(=O)[O-].[Cu+2] (stereo not drawn) [Copper (II) tartrate hydrate]
>250 µg/mL

Identify measured MBC corresponding to CC(=O)[O-].CC(=O)[O-].[Cu+2] [Copper (II) acetate]
>250 µg/mL

Identify measured MBC corresponding to O=S(=O)([O-])[O-].[Cu+2] [Copper (II) sulphate, copper (II) sulphate]
1000 µg/mL

Identify measured MBC corresponding to "On1ccccc1=S.On1ccccc1=S.[Cu]"
0.49 µg/mL

Identify measured MBC corresponding to CC(=O)[O-].[Cu+] [Copper (I) acetate]
>250 µg/mL

Identify measured MBC corresponding to O.O.O.O.O.O=S(=O)([O-])[O-].[Cu+2] [Copper (II) sulphate pentahydrate]
>250 µg/mL

###

Test system: P. acnes NCTC 737
Test: Minimum bactericidal concentration (MBC) assay
Assay type: cell-based, Propionibacterium acnes
Details: copper salt alone; P. acnes NCTC 737
measure.name: MBC (µg/mL)
Unit µg/mL implied. Number only.

Identify measured MBC corresponding to [Cu][Br] [Copper (I) bromide]
125

Identify measured MBC corresponding to [Cl-].[Cu+2].[Cu+2].[OH-].[OH-].[OH-] [Copper (II) oxychloride]
15.6

Identify measured MBC corresponding to [Br][Cu][Br] [Copper (II) bromide]
62.5

Identify measured MBC corresponding to [Cu+].[I-] [Copper (I) iodide]
31.25

Identify measured MBC corresponding to CC(=O)Oc1ccccc1C(=O)[O-].CC(=O)Oc1ccccc1C(=O)[O-].CC(=O)Oc1ccccc1C(=O)[O-].CC(=O)Oc1ccccc1C(=O)[O-].[Cu+2].[Cu+2] [Copper (II) aspirinate]
62.5

###

Tested on: P. acnes NCTC 737
Experiment: Synergy disc diffusion assay (SDDA), also supplemented
Details: quinone + CSPH; unsupplemented
Given measured SDDA increase, output 1.0 if it is greater than or equal to 7 mm and 0.0 if not.

compound | answer.label
Cc1cc(O)ccc1O [2-methyl-p-hydroquinone] | 0.0

Answer whether SDDA increase of "CC1=CC(=O)C=CC1=O" is greater than or equal to 7 mm.
1.0

###

# reported DDA + salt & lipid; entries follow
Test system: P. acnes NCTC 737
Experiment: Disc diffusion assay (DDA), also supplemented;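 also: paper disc carrying compound placed on inoculated Wilkins-Chalgren Anaerobe agar pH 6.0, with lipid or NaCl supplement where listed, anaerobic 37 °C for 72 h, inhibition zone diameter read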
Conditions: copper salt alone, 200 μg per disc (silicate 62 μg); salt and 1% (v/v) Tween 80

compound | measure.name | measured.result
CC(=O)Oc1ccccc1C(=O)[O-].CC(=O)Oc1ccccc1C(=O)[O-].CC(=O)Oc1ccccc1C(=O)[O-].CC(=O)Oc1ccccc1C(=O)[O-].[Cu+2].[Cu+2] [Copper (II) aspirinate] | DDA + salt & lipid | 47.45 mm
[Cl-].[Cu+2].[Cu+2].[OH-].[OH-].[OH-] [Copper (II) oxychloride] | DDA + salt & lipid | 52.04 mm

Identify measured DDA + salt & lipid corresponding to [Cu][Br] [Copper (I) bromide]
43.70 mm

###

Tested on: P. acnes NCTC 737
Test: Synergy disc diffusion assay (SDDA), also supplemented
Settings: quinone + CSPH; unsupplemented
measure.name: SDDA increase
Returns: string containing the numeric result and its unit.

Consider the worked cases shown below.
molecule | measured.result
CCc1cc(O)ccc1O [2-ethyl-p-hydroquinone] | 8.41 mm
CC(C)(C)C1=CC(=O)C=CC1=O | 11.39 mm

Consider the record given below.
Identify measured SDDA increase corresponding to "O=C1C=CC(=O)C(Cl)=C1"
5.23 mm
